Source listed as PubChem BioAssay (NCI).

Please respond with reported TGI for every item in the list.
Test system: SF-295 CNS
Experiment: NCI tumour cell line growth inhibition, 48 h
Numbers only, in µM.

O=c1cc(-c2cccc3c2Sc2ccccc2S3)oc(N2CCOCC2)c1 = 24.9
COc1cc(-c2cc(=O)c3c(O)c(CC=C(C)C)c(O)cc3o2)ccc1O = 31.2

Now for a further compound.
Looking up `O=C(Cc1ccc(F)c(F)c1)Nc1cc(C2(C(F)(F)F)CC2)nn1Cc1ccccc1` , I see its TGI listed as 14.7

----------
Tested on: OVCAR-8 ovarian
Assay: NCI tumour cell line growth inhibition, 48 h
Please respond with reported TGI for every item in the list.

In the examples that follow, each entry is paired with its recorded TGI.
COc1ccc(N2C(=O)C3c4[nH]c5ccc(Br)cc5c4C4CCC(C(C)(C)C)CC4C3C2=O)cc1 (centres undefined) = > 100 µM
COc1ccc(CCCNC(=O)c2cc(OC)c(OC)cc2CCO)cc1OC = > 100 µM
O=C(Nc1ccc(Cl)c(Cl)c1)Nc1c(Oc2ccc(Cl)c(Cl)c2)ccc(Cl)c1S(=O)(=O)O = > 100 µM

Below are some molecules; for each one, tell me its TGI.
1. CC(=O)c1c(C)[nH]c(-c2nc3ccc(N4CCN(C)CC4)cc3[nH]2)c1-c1ccc(N(C)C)cc1
2. Cc1c2c(c(O)c3c(O)cccc13)C(=O)C1(O)C(O)=C(C(=O)NCNc3ccc(C(N)=O)cn3)C(=O)C(N(C)C)C1C2 (centres undefined)
3. COc1ccccc1C1ON=C(c2ccc([N+](=O)[O-])cc2)N1C12CC3CC(CC(C3)C1)C2 (centres undefined)
4. COc1ccc2c(=O)cc(C(Cl)(Cl)Cl)oc2c1
5. COc1cc(N(C)C)c(OC)cc1/C=C\c1ccnc2ccccc12
6. CC(C)(C)c1cc(-n2c(-c3ccc(Cl)cc3)nc3cc(C(=O)Nc4ccc(Cl)cc4)ccc32)n[nH]1

Reply text:
["> 84.1 µM", "35.5 µM", "> 100 µM", "10.4 µM", "> 10 µM", "> 100 µM"]

----------
Please respond with reported TGI for every item in the list.
System: OVCAR-8 ovarian
Assay: NCI tumour cell line growth inhibition, 48 h

NC(=O)/N=C1/CCC2C3CCCC2C13 = > 100 µM
O=c1c2cc3c(=O)n4c(cc(-c5ccccc5)c5cc(Cl)ccc54)nc3cc2nc2cc(-c3ccccc3)c3cc(Cl)ccc3n12 = > 100 µM
O=C(NCCCO)c1cc(Cl)ccc1O = 13 µM
CC(=O)O[C@H]1CC[C@@]2(C)C(=CC[C@@H]3[C@@H]2CC[C@]2(C)c4c(C)nn(-c5ccccc5)c4C[C@@H]32)C1 = > 100 µM
S=C1CCSc2c(ccc3ccccc23)N1 = > 100 µM

Below are some molecules; for each one, tell me its TGI.
1. NCCCC[C@H](N)C(=O)Nc1ccc(-c2nc3ccccc3s2)cc1
2. CC(C)NC(=O)N(Nc1ccccc1)C(C)(C)C
3. COc1cc(NCCC2CCCCN2)c2ncccc2c1 (stereo unspecified)
4. C/C(CC(O)(/C=N/O)c1ccccc1)=N/O (stereo unspecified)
5. CN1C(=O)C2(C=CC(O)CC2)c2ccccc21 (stereo unspecified)
6. C#Cc1c(/C=C/C(=O)OCC)ccc2ccccc12

Reply text:
1: 40.1 µM; 2: > 100 µM; 3: > 100 µM; 4: > 100 µM; 5: > 100 µM; 6: > 100 µM
